tested on: Bacillus cereus ATCC 10876; test: Broth microdilution antimicrobial activity; format: cell-based; settings: ATCC10876
This section presents compounds with their documented MBC values.
Field format: number, assumed mg/L, no unit text.

// solved cases for MBC follow
CNC(=S)NNS(=O)(=O)c1ccccc1: 125
CCCCNC(=S)NNS(=O)(=O)c1ccccc1: 2000
O=C(O)c1cn(C2CC2)c2cc(N3CCNCC3)c(F)cc2c1=O [CIP, ciprofloxacin, reference compound]: 0.12

Task item: MBC for CCCCCCNC(=S)NNS(=O)(=O)c1ccccc1 ?
Reply: 250

###

Observed MIC, system Micrococcus luteus ATCC 10240.
Answer with the number, then the unit.

CCCCCCNC(=S)NNS(=O)(=O)c1ccccc1 [WZ3]: 250 µg/mL
O=S(=O)(NNC(=S)NC1CCCCC1)c1ccccc1 [WZ1]: 500 µg/mL

Task item: MIC for CNC(=S)NNS(=O)(=O)c1ccccc1 [WZ4] ?
Reply: 250 µg/mL

Task item: MIC for O=C(O)c1cn(C2CC2)c2cc(N3CCNCC3)c(F)cc2c1=O [CIP, ciprofloxacin, reference compound] ?
Reply: 0.98 µg/mL

Task item: MIC for CCCCNC(=S)NNS(=O)(=O)c1ccccc1 [WZ2] ?
Reply: 1000 µg/mL

###

system: Candida parapsilosis ATCC 22019; test: Broth microdilution antimicrobial activity; format: cell-based; details: Lodderomyces parapsilosis, ATCC22019, read-out: MFC
test readout: MFC (µg/mL)
Field format: number, assumed µg/mL, no unit text.

CCCCCCNC(=S)NNS(=O)(=O)c1ccccc1: 2000

Task item: MFC for CNC(=S)NNS(=O)(=O)c1ccccc1 ?
Reply: 1000

###

system: Candida krusei ATCC 14243; test: Broth microdilution antimicrobial activity; type: cell-based; conditions: Pichia kudriavzevii, ATCC14243, read-out: MFC
test readout: MFC (µg/mL)
Field format: number, assumed µg/mL, no unit text.

Task item: MFC for CCCCCCNC(=S)NNS(=O)(=O)c1ccccc1 [WZ3] ?
Reply: 1000

Task item: MFC for CNC(=S)NNS(=O)(=O)c1ccccc1 [WZ4] ?
Reply: 2000

###

experiment: in vitro; assay type: cell-based, sheep; settings: sheep
test readout: hemolysis at 1 h, 125 μg/mL (%)
Field format: number, assumed %, no unit text.

// solved cases for hemolysis at 1 h, 125 μg/mL follow
CNC(=S)NNS(=O)(=O)c1ccccc1 [WZ4]: 3.16
O=S(=O)(NNC(=S)NC1CCCCC1)c1ccccc1 [WZ1]: 2.11
CCCCCCNC(=S)NNS(=O)(=O)c1ccccc1 [WZ3]: 1.14

Task item: hemolysis at 1 h, 125 μg/mL for CCCCNC(=S)NNS(=O)(=O)c1ccccc1 [WZ2] ?
Reply: 3.15

###

This section presents molecules with their documented MIC values.
Tested on: Candida albicans ATCC 2091
Assay: Broth microdilution antimicrobial activity
Format: cell-based
Conditions: ATCC2091, read-out: MIC
Method: Reference strains of microorganisms that came from American Type Culture Collection (ATCC) (Manassas, VA, USA) were used for this study. […] Then, the microbial suspensions were introduced into each well of the microplate and incubated for 18–24 h at 35 °C. […] Next, the values of the minimum bactericidal concentration (MBC) and minimum fungicidal concentration (MFC) of WZ1–WZ4 were assessed. […] The lowest concentrations of compounds without microbial growth were read as MBC or MFC. […]
Field format: number, assumed µg/mL, no unit text.

CNC(=S)NNS(=O)(=O)c1ccccc1: 250
CCCCCCNC(=S)NNS(=O)(=O)c1ccccc1: 500

Below: the item to evaluate.
Task item: MIC for CCCCNC(=S)NNS(=O)(=O)c1ccccc1 ?
Reply: 2000
